# TARGET_SYSTEM: T1, cSNK:BSA conjugate (bovine, head-to-tail cyclized; conjugated to BSA carrier)
# T1 construct: also called BSA-cSNK
# T1 sequence (P02769 25-607 limits assumed): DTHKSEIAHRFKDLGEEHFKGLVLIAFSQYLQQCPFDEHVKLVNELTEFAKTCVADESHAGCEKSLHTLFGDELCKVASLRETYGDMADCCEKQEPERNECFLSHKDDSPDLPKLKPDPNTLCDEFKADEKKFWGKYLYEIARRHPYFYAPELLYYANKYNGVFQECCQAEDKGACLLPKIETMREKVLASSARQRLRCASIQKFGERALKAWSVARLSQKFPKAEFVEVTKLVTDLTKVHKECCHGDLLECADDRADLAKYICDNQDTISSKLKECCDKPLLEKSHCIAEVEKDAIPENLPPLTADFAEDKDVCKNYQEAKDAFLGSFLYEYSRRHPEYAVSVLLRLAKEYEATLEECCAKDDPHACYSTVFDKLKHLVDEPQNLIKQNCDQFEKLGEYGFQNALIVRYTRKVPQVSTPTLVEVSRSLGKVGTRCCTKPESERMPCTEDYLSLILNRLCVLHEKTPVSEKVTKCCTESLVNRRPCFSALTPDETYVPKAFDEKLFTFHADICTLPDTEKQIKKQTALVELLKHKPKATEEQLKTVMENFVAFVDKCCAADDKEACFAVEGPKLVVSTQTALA
# TEST_METHOD_NOTES: BLI 2:1 fit, site 2 (kon2); 100 nM row
RECORDED_METRIC: kon (M⁻¹ s⁻¹)
Enter your answer as a number in M⁻¹ s⁻¹; do not include the unit.

Task: Could you share which kon value was measured for murine monoclonal antibody 5E3 (antibody, V domains shown, mouse antibody of the 5E3 hybridoma; also called murine 5E3; m5E3) VH: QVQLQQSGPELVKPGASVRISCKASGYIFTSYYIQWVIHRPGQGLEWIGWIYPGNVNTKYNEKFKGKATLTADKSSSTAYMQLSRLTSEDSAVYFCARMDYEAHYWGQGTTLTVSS VL: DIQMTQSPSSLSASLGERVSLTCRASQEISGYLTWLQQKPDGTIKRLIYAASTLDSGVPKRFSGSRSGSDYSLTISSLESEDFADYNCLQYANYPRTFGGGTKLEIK ?
Output: 1.42e+07
